biological target: TIE2 (Homo sapiens, UniProt Q02763); experiment: TIE2 cell-free biochemical assay
Sequence (Q02763 23-1124, species assumed): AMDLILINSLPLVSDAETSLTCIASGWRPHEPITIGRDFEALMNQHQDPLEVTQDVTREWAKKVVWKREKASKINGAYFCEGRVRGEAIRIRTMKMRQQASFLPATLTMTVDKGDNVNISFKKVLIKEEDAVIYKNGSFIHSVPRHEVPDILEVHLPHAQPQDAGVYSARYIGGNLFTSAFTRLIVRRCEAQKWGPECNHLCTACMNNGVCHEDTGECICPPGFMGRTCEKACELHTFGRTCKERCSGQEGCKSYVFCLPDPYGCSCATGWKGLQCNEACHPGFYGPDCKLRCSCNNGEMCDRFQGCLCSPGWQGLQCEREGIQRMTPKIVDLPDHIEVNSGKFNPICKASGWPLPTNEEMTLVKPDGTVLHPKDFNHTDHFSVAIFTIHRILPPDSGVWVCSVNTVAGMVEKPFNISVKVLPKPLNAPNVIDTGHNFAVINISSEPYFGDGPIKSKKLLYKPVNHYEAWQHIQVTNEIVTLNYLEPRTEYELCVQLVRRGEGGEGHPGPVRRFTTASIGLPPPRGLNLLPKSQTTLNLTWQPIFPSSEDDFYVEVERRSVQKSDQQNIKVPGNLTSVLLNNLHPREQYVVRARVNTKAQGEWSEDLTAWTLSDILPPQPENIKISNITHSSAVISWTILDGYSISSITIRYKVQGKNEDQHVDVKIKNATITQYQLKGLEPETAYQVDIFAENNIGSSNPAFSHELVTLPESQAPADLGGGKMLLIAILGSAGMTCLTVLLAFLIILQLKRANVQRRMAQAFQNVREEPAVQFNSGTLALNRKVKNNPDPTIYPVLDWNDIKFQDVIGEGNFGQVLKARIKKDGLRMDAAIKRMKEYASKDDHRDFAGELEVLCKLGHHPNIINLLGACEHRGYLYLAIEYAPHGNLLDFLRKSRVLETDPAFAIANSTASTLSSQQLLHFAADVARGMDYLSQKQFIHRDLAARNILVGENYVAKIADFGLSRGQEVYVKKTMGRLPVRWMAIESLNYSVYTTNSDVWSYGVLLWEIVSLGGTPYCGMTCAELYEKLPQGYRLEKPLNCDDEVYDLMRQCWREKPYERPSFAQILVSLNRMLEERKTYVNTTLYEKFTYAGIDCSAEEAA
Kindly supply the reported AC50 values for the records listed here.
Give the number; µM is assumed, so skip it.

So for O=C(O)C(F)(F)C(F)(F)C(F)(F)C(F)(F)C(F)(F)C(F)(F)C(F)(F)F [Perfluorooctanoic acid] , the logged AC50 turned out to be 31.9

Reported AC50 of CN(C)[C@@H]1C(O)=C(C(N)=O)C(=O)[C@@]2(O)C(O)=C3C(=O)c4c(O)cccc4[C@@](C)(O)[C@H]3[C@H](O)[C@@H]12 [Oxytetracycline dihydrate, reference compound] : 15

----------
molecular target: PTEN (Homo sapiens, UniProt P60484); assay: PTEN biochemical assay; conditions: read-out: PTEN AC50
Sequence (P60484 whole entry, species assumed): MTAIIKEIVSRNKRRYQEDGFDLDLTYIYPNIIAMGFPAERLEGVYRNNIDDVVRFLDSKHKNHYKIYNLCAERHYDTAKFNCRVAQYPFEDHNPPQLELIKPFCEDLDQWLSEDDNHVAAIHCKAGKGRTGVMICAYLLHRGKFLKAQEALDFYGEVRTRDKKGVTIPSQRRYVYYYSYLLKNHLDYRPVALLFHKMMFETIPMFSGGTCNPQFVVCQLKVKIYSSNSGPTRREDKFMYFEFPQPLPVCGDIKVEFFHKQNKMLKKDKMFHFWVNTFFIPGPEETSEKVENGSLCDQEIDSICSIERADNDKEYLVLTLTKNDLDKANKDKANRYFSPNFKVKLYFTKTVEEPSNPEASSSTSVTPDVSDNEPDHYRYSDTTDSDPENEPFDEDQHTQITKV
Exercise: state measured AC50 for each of the molecules provided.
State just the number; it will be interpreted in µM.

Query `O=S(=O)(O)C(F)(F)C(F)(F)C(F)(F)C(F)(F)C(F)(F)C(F)(F)C(F)(F)C(F)(F)F` on PTEN (Homo sapiens, UniProt P60484); AC50 returned: 17

`S=C([S-])NCCNC(=S)[S-].[Mn+2]` tested on PTEN (Homo sapiens, UniProt P60484) gave AC50: 0.9

Entry `CCOc1nc(F)cc2nc(S(=O)(=O)Nc3c(Cl)cccc3Cl)nn12` : AC50 on PTEN (Homo sapiens, UniProt P60484) = 50

Form field, AC50 with PTEN (Homo sapiens, UniProt P60484), item O=C(O)C1(C(=O)Nc2ccc(Cl)cc2Cl)CC1 [Cyclanilide] : 3.9
